Target: T1, DegS H198P (E. coli, UniProt P0AEE3 27-355, H198P)
T1 sequence (looked up): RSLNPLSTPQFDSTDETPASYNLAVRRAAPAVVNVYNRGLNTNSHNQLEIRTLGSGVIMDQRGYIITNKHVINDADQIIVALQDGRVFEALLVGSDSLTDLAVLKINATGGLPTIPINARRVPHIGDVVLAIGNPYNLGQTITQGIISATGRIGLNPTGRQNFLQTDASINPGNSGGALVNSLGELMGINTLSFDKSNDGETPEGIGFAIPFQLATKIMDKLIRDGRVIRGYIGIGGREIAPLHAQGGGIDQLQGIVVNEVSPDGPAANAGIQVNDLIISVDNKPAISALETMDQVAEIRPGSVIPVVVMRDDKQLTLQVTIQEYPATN
Experiment: fluorescence polarisation
Where no end group is shown, it is not given here. fluorescein = fluorescein, a fluorescent label on the peptide N-terminus
quantity_kind: Kd (nM)
Answers are plain numbers, in nM.

Query: If you can, please state the reported Kd value of fluorescein-DNRDGNVYYF [fluorescent OMP peptide fluorescein-DNRDGNVYYF] .
Reply: 2500
